- target: HLA-A*0201 (human)
- testProtocol: competitive inhibition of 125I-labelled standard peptide binding to purified HLA, gel filtration; ratio = IC50 standard / IC50 test peptide
readoutKind: binding affinity ratio
Give the figure by itself; no unit, no explanation.

Q: I would be grateful if you could share the reported binding affinity ratio for VLGLPTQEPAL (modifications not checked) [… (Kallikrein, position 138)] .
A: -0.0001

Q: Input VLVNEILNHM (modifications not checked) [… (PAP, position 262)]
A: 0.0008

Q: Input VLVHPQWVLT (modifications not checked)
A: 0.0001

Q: Input VLVASRGRA (modifications not checked)
A: 0.0001

Q: Input VLVHPQWV (modifications not checked) [VLVHPQWV (PSA, position 49)]
A: 0.0001

Q: Input VAYINADSSI (modifications not checked) [… (PSM, position 447)]
A: 0.0001

Further cases:
Q: I would be grateful if you could share the reported binding affinity ratio for VLRKYADKI (modifications not checked) [… (PSM, position 603)] .
A: 0.0002

Q: Input VLVHPQWVL (modifications not checked)
A: 0.02

Q: Input VLVHPQWV (modifications not checked) [VLVHPQWV (Kallikrein, position 53)]
A: 0.0001

Q: Input VLVHPQWVL (modifications not checked) [… (Kallikrein, position 53)]
A: 0.02

Q: Input VLVASRGRAV (modifications not checked)
A: 0.0003

Q: Input VLTAAHCL (modifications not checked) [VLTAAHCL (Kallikrein, position 60)]
A: 0.0002
